# test.system: T1, human CD71 extracellular domain (human, UniProt P02786 89-760)
# T1 construct: also called hCD71; human CD71-ECD
# T1 sequence (P02786 89-760): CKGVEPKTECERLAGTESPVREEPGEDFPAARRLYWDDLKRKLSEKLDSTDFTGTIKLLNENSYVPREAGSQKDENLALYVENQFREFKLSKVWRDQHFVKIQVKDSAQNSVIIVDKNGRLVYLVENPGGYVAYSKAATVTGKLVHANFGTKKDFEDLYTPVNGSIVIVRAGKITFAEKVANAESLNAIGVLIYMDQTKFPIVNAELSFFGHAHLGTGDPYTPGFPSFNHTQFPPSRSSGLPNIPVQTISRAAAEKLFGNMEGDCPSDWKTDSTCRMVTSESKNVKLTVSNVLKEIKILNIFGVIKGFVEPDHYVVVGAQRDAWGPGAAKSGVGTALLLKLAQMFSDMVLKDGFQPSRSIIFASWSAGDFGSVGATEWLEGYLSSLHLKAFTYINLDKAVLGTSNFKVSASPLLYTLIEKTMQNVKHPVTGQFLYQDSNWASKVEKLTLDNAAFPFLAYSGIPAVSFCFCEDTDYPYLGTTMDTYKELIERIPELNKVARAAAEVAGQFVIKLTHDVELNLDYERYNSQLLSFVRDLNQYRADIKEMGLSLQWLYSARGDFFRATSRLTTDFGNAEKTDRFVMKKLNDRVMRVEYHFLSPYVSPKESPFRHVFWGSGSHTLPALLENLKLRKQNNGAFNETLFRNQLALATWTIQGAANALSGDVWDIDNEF
# assay.text: primary ELISA; signal on hCD71 over signal on HSA
experimental.endpoint: hCD71:HSA (ratio)
State just the number; it will be interpreted in ratio.

Per the records, this binder ( CD71-binding FN3 domain of SEQ ID NO: 112 (designed binder, Screen 1 hit, tested from colonies in the primary ELISA; not shown: C-terminal poly-histidine tag added to each FN3 domain) MLPAPKNLVVSRVTEDSARLSWTAPDAAFDSFFIGYLEPQPPGEAIDLWVPGSERSYDLTGLKPGTEYNVTIQGVKGGFPSMPLSAIFTT ) has hCD71:HSA equal to 2040

Reported hCD71:HSA ( CD71-binding FN3 domain of SEQ ID NO: 106 (designed binder, Screen 1 hit, tested from colonies in the primary ELISA; not shown: C-terminal poly-histidine tag added to each FN3 domain) MLPAPKNLVVSRVTEDSARLSWTAPDAVFDSFYIAYAEPRPDGEAIGLYVPGSERSYDLTGLKPGTEYSVLIHGVKGGLLSSPLTASFTT ) = 1230

Looking up CD71-binding FN3 domain of SEQ ID NO: 116 (designed binder, Screen 1 hit, tested from colonies in the primary ELISA; not shown: C-terminal poly-histidine tag added to each FN3 domain) MLPAPKNLVVSRVTEDSARLSWTAPDAAFDSFYIAYAEPRPDGEAILLLVPGSERSYDLTGLKPGTEYSVLIHGVKGGLLSSPLIAGFTT , I see its hCD71:HSA listed as 1470

Field hCD71:HSA (entry CD71-binding FN3 domain of SEQ ID NO: 113 (designed binder, Screen 1 hit, tested from colonies in the primary ELISA; not shown: C-terminal poly-histidine tag added to each FN3 domain) MLPAPKNLVVSRVTEDSARLSWTAPDAAFDSFFIGYLEPQPPGEAIYLLVPGSERSYDLTGLKPGTEYNVTIQGVKGGFPSDPLSAIFTT ) reads 1640

The recorded hCD71:HSA for CD71-binding FN3 domain of SEQ ID NO: 104 (designed binder, Screen 1 hit, tested from colonies in the primary ELISA; not shown: C-terminal poly-histidine tag added to each FN3 domain) MLPAPKNLVVSRVTEDSARLSWTAPDAAFDSFFIGYLEPQPPGEAIHLIVPGSERSYDLTGQKPGTEYNVTIQGVKGGFPSDPLVASFTT is 216

# binder CD71-binding FN3 domain of SEQ ID NO: 114 (designed binder, Screen 1 hit, tested from colonies in the primary ELISA; not shown: C-terminal poly-histidine tag added to each FN3 domain) MLPAPKNLVVSRVTEDSARLSWTAPDAAFDSFHIVYHEPRPSGEAIWLFVPGSERSYDLTGLKPGTEYEVGIVSVKGGDLSVPLSAIFTT ; its hCD71:HSA = 130

Kindly note the recorded hCD71:HSA for CD71-binding FN3 domain of SEQ ID NO: 111 (designed binder, Screen 1 hit, tested from colonies in the primary ELISA; not shown: C-terminal poly-histidine tag added to each FN3 domain) MLPAPKNLVVSRVTEDSARLSWTAPDAAFDSFFIGYLEPQPPGEAISLWVPGSERSYDLTGLKPGTEYNVTIQGVKGGFPSIPLWAIFTT , which is 1420

Field hCD71:HSA (entry CD71-binding FN3 domain of SEQ ID NO: 118 (designed binder, Screen 1 hit, tested from colonies in the primary ELISA; not shown: C-terminal poly-histidine tag added to each FN3 domain) MLPAPKNLVVSRVTEDSARLSWTAPDAAFDSFYIAYAEPRPDGEAITLWVPGSERSYDLTGLKPGTEYSVTIHGVKGGLLSSPLSAIFTT ) reads 200

Looking up CD71-binding FN3 domain of SEQ ID NO: 110 (designed binder, Screen 1 hit, tested from colonies in the primary ELISA; not shown: C-terminal poly-histidine tag added to each FN3 domain) MLPAPKNLVVSRVTEDSARLSWTAPDAAFDSFHIVYHEPRPSGEAIYLEVPGSERSYDLTGLKPGTEYEVGIVSVKGGDLSVPLRAHFTT , I see its hCD71:HSA listed as 2070
